Where do these numbers come from? They come from paper PMC9964319.

Tested on: Colo320 human colon adenocarcinoma cell line (doxorubicin-resistant)
test description: MTT assay, cytotoxicity at pH 6 and 7
Format: cell-based
condition info: Homo sapiens, COLO 320; Colo320; pH 7; 72 h incubation; read-out: IC50
pIC50: −log10 of the molar value.
endpoint: pIC50

Ask | Given Cn1ccnc1 [mim, 1-methylimidazole, reference compound] , respond with its pIC50.
Reply | < 4.00

----------
Tested on: E. coli ATCC 25922 (sensitive)
test description: Antibacterial assay, MIC in 96-well plates at different pH
Format: cell-based
condition info: E. coli sensitive; pH 6; after one day; read-out: MIC
Each entry below carries its reported MIC.

These recorded examples may help you get a feel for the data.
molecule: Cc1c(C)c(C)[c-](C)c1C.[Cl][Rh+][O]c1cccc2cccnc12 [[RhCp*(8HQH−1)Cl]]
tested system: E. coli ATCC 25922 (sensitive)
MIC: >100 µM
--
molecule: Cc1c(C)c(C)[c-](C)c1C.[Cl-].[Rh+2][O]c1cccc2cccnc12.c1ccncc1 [[RhCp*(8HQH−1)Cl] +Py]
tested system: E. coli ATCC 25922 (sensitive)
MIC: >100 µM
--
molecule: Clc1ccc(COC(Cn2ccnc2)c2ccc(Cl)cc2Cl)cc1 (centres unmarked) [econ, econazole, reference compound]
tested system: E. coli ATCC 25922 (sensitive)
MIC: >100 µM

Ask | Query MIC for Cc1c(C)c(C)[c-](C)c1C.[Cl-].[Cl-].[Rh+3].c1cnc2c(c1)ccc1cccnc12 [[RhCp*(phen)Cl]Cl]
Reply | >100 µM

Ask | Give the reported MIC for this molecule. Cc1c(C)c(C)[c-](C)c1C.Clc1ccc(COC(Cn2ccnc2)c2ccc(Cl)cc2Cl)cc1.[Cl-].[Rh+2][O]c1cccc2cccnc12 (racemic) [[RhCp*(8HQH−1)Cl] +econ]
Reply | 25 µM

----------
Entries annotated with measured MIC
Tested on: S. aureus 272123 (MRSA)
test description: Antibacterial assay, MIC in 96-well plates at different pH
Type: cell-based
condition info: pH 8, after one day, read-out: MIC
Description: The antibacterial effect was studied in two Gram-positive and in two Gram-negative strains. The Gram-positive S. aureus ATCC 25923 (ATCC, Manassas, VA, USA) is a methicillin-susceptible reference bacterial strain, while S. aureus 272123 is a clinical isolate and resistant to methicillin and ofloxacin (MRSA), which was given by Prof. […] The minimum inhibitory concentrations (MICs) of the compounds were determined in 96-well plates based on the Clinical and Laboratory Standard Institute guidelines. […]
Express the result in µM but write the number alone.

compound: Cc1c(C)c(C)[c-](C)c1C.Clc1ccc(COC(Cn2ccnc2)c2ccc(Cl)cc2Cl)cc1.[Cl-].[Rh+2][O]c1cccc2cccnc12 (racemic) [[RhCp*(8HQH−1)Cl] +econ]
MIC / µM: 3.125

Ask | Specify reported MIC for the compound shown: Cc1c(C)c(C)[c-](C)c1C.Cn1ccnc1.[O-]c1cccc2cccnc12.[Rh+3] [[RhCp*(8HQH−1)(mim)]^+]
Reply | 12.5

Ask | Item Cc1c(C)c(C)[c-](C)c1C.[Cl][Rh+][O]c1cccc2cccnc12 [[RhCp*(8HQH−1)Cl]] : provide MIC
Reply | 12.5

----------
Test system: S. aureus ATCC 25923 (methicillin-susceptible)
test description: Antibacterial assay, MIC in 96-well plates at different pH
Assay type: cell-based
condition info: Staphylococcus aureus, ATCC25923, 24 h; S. aureus sensitive; pH 8; after one day; read-out: MIC
MIC overview

compound: O=P(O)(O)C(O)(Cn1ccnc1)P(=O)(O)O [zol, zoledronic acid, reference compound]
tested system: S. aureus ATCC 25923 (methicillin-susceptible)
observed value: > 100 µM

Ask | Quickly give me recorded MIC for Cn1ccnc1 [mim, 1-methylimidazole, reference compound]
Reply | > 100 µM

Ask | Using known records, supply MIC for Clc1ccc(COC(Cn2ccnc2)c2ccc(Cl)cc2Cl)cc1 (stereo not shown) [econ, econazole, reference compound]
Reply | 0.19 µM

Ask | Annotate the compound c1cnc2c(c1)ccc1cccnc12 [phen, 1,10-phenanthroline, reference compound] with its measured MIC.
Reply | > 100 µM
